- test: Chemical stability by stress testing (high temperature, high humidity, illumination)
- Assay type: physicochemical
- experimental-context: High humidity (25° C., 92.5% RH), 10 days
readout-name: characters

{"columns": ["compound", "recorded-value"],
 "data": [
  ["CCCOc1ccc(NC(=O)CN2CCN(C)CC2)cc1-c1nc(CC)c(CC)c(=O)[nH]1 [compound Z]", "White"],
  ["CCCOc1ccc(NC(=O)CN2CCN(C)CC2)cc1-c1nc(CC)c(CC)c(=O)[nH]1.Cl [hydrochlorate of compound Z]", "White"]
]}
